// data source = PubChem BioAssay AID1996

Details: buffer; pH 7.4; 200.0 µM
Below is a list of entries, each paired with its recorded solubility kinetic value.

molecule: Cc1ccc(C(=O)OCN2C(=O)c3ccccc3C2=O)c(O)c1
solubility kinetic: < 0.7 µg/mL
//
molecule: Cc1ccc(Cl)cc1NS(=O)(=O)c1cn(C)nc1C
solubility kinetic: > 45 µg/mL
//
molecule: O=C(COC(=O)c1ccco1)NCc1ccccc1Cl
solubility kinetic: > 44.1 µg/mL
//
molecule: Cc1cccc(C)c1NC(=O)CNC(=O)c1cnccn1
solubility kinetic: > 42.6 µg/mL
//
molecule: CC(=O)c1ccc(N2CCN(C(=O)c3cccs3)CC2)c(F)c1
solubility kinetic: > 49.9 µg/mL
//
molecule: COc1ccc(NC(=O)CNC(=O)C2CCCCC2)cc1OC
solubility kinetic: > 48.1 µg/mL
//
molecule: Cl.O=C(COc1ccc(Cl)cc1)NCCN1CCCC1
solubility kinetic: > 47.9 µg/mL
//
molecule: O=C(O)c1cccc(S(=O)(=O)Nc2ccc3c(c2)CCC3)c1
solubility kinetic: > 47.6 µg/mL
//
molecule: CC(/C=C1\SC(=S)N(CC(=O)O)C1=O)=C\c1ccccc1
solubility kinetic: > 47.9 µg/mL
//
molecule: O=C(CN1C(=O)NC2(CCCC2)C1=O)NCc1ccccc1
solubility kinetic: > 45.2 µg/mL
//
molecule: CC(=O)c1ccc(NC(=S)N2CCCCCC2)cc1
solubility kinetic: > 41.5 µg/mL
//
molecule: Nc1ccc(S(=O)(=O)Nc2nc3ccccc3o2)cc1
solubility kinetic: > 43.4 µg/mL
//
molecule: Cc1ccc(C(=O)NCC(=O)Nc2ccncc2)cc1
solubility kinetic: > 40.4 µg/mL
//
molecule: Cc1oc(C(C)(C)C)cc1C(=O)NCc1ccc2c(c1)OCO2
solubility kinetic: < 0.7 µg/mL
//
molecule: COc1cccc(C(=O)NC2CC(C)(C)NC(C)(C)C2)c1OC
solubility kinetic: > 48.1 µg/mL
//
molecule: O=C(Nc1ccccc1Cl)c1cc[n+]([O-])cc1
solubility kinetic: > 37.3 µg/mL
//
molecule: O=C1C(CCS(=O)c2ccccc2)C(=O)N(c2ccccc2)N1c1ccccc1 (stereo unspecified)
solubility kinetic: > 60.7 µg/mL
//
molecule: CC(=O)Nc1ccc(Nc2ccccc2)cc1
solubility kinetic: > 33.9 µg/mL
//
molecule: Cc1ccc(S(=O)(=O)CCN2CCN(c3ccccc3)CC2)cc1
solubility kinetic: 45.7 µg/mL
//
molecule: COc1ccc(COC(=O)Nc2c(SC)nsc2SC)cc1
solubility kinetic: 1 µg/mL
//
molecule: Clc1nc(Cl)nc(NCCC2=CCCCC2)n1
solubility kinetic: > 41 µg/mL
//
molecule: O=C(C1CC(=O)N(c2ccc(F)cc2)C1)N1CCCCCC1 (stereo unspecified)
solubility kinetic: > 45.7 µg/mL
//
molecule: COc1ccc(N2C(=O)CSC2c2ccc(F)c(F)c2)cc1 (stereo unspecified)
solubility kinetic: > 48.2 µg/mL
//
molecule: CN(C)c1ccc(C(=O)OCC(=O)c2ccc[nH]2)cc1
solubility kinetic: 7.8 µg/mL
//
molecule: COc1ccc(NC(=O)CC2CC3CCC2C3)cn1 (stereo unspecified)
solubility kinetic: 29.9 µg/mL
//
molecule: Cc1nc(-c2noc(-c3ccc(Cl)cc3)n2)c(C(F)(F)F)o1
solubility kinetic: < 0.2 µg/mL
//
molecule: Cc1ccc(N(CN2C(=O)C3C4CCC(C4)C3C2=O)C(=O)c2ccco2)cc1 (stereo unspecified)
solubility kinetic: 53.9 µg/mL
//
molecule: c1ccc(CCNCC2COc3ccccc3O2)cc1 (stereo unspecified)
solubility kinetic: > 40.4 µg/mL
//
molecule: Cc1ccc(C(C)NC(=O)c2c(-c3ccccc3)noc2C)cc1C (stereo unspecified)
solubility kinetic: 2.4 µg/mL
//
molecule: O=C(Cn1cnc2ccccc2c1=O)NCc1cccs1
solubility kinetic: 35.6 µg/mL
//
molecule: C=CC1CN2CCC1CC2C(OC(C)=O)c1ccnc2ccc(OC)cc12 (stereo unspecified)
solubility kinetic: > 55 µg/mL
//
molecule: Cc1cc(NC(=O)COC(=O)c2c(C)c(C)c(C)c(C)c2C)no1
solubility kinetic: 2.3 µg/mL
//
molecule: NC(=O)NC(CC(=O)N1CCc2ccccc2C1)c1ccc(Cl)cc1 (stereo unspecified)
solubility kinetic: 49.9 µg/mL
//
molecule: CC(NC(=O)COC(=O)COc1ccc(Cl)cc1)c1ccccc1 (stereo unspecified)
solubility kinetic: 40.2 µg/mL
//
molecule: CCOC(=O)Cc1ccc(NC(=O)c2ccc([N+](=O)[O-])cc2)cc1
solubility kinetic: 1 µg/mL
//
molecule: COc1cc(C)ccc1OCC(=O)OCC(=O)c1ccc[nH]1
solubility kinetic: > 45.5 µg/mL

====

Settings: buffer; pH 7.4; 200.0 µM
Below is a list of entries, each paired with its recorded solubility kinetic value.

molecule: CC1CCc2c(sc3ncn(CCO)c(=O)c23)C1 (centres undefined)
solubility kinetic: > 39.7 µg/mL
//
molecule: COc1cccc(COC(=O)C2CCN(C(=O)c3ccccc3C)CC2)c1OC
solubility kinetic: > 59.6 µg/mL
//
molecule: CC(C)N(CCC#N)C(=O)Nc1ccc2c(c1)CCO2
solubility kinetic: > 41 µg/mL
//
molecule: COc1ccc(CCN(C)CCCC(C#N)(c2cc(OC)c(OC)c(OC)c2)C(C)C)cc1OC.Cl (centres undefined)
solubility kinetic: > 78.2 µg/mL
//
molecule: COc1cc2c(cc1OC)C(C)N(C(=O)c1ccc(C)o1)CC2 (centres undefined)
solubility kinetic: > 47.3 µg/mL
//
molecule: CC(C)NC(=S)Nc1ccc2[nH]c(=O)[nH]c2c1
solubility kinetic: > 37.5 µg/mL
//
molecule: CCCS(=O)(=O)N1CCC(C(=O)NCCC(C)C)CC1
solubility kinetic: > 45.7 µg/mL
//
molecule: COc1ccc(-n2c(CCC(=O)O)ccc2-c2ccccc2)cc1
solubility kinetic: > 48.2 µg/mL
//
molecule: Cc1ccc(CNc2ccc3c(c2)ncn3C(C)C)cc1
solubility kinetic: > 41.9 µg/mL
//
molecule: Cc1ccc2ncnc(Oc3ncccc3NC(=O)C(C)(C)C)c2c1
solubility kinetic: > 50.5 µg/mL
//
molecule: Cc1cc(C)cc(C(=O)Nc2ccncc2)c1
solubility kinetic: > 33.9 µg/mL
//
molecule: Cc1ccc(NC(=O)COC(=O)C2=NNC(=O)CC2)c(Br)c1
solubility kinetic: > 55.2 µg/mL
//
molecule: Cc1ccc(CC(=O)NCC(O)c2ccccc2)cc1 (centres undefined)
solubility kinetic: 33.4 µg/mL
//
molecule: Fc1ccc(N=c2ssnc2Cl)c(F)c1
solubility kinetic: 7.5 µg/mL
//
molecule: NS(=O)(=O)c1ccc(NC(=O)COC(=O)C2CC2)cc1
solubility kinetic: > 44.7 µg/mL
//
molecule: COc1ccc(S(=O)(=O)N2CCc3ccccc32)cc1C(=O)NCCc1ccc(S(N)(=O)=O)cc1
solubility kinetic: 3.7 µg/mL
//
molecule: CCOC(=O)/C(=C\c1ccccc1)NC(=O)c1ccccc1
solubility kinetic: > 44.3 µg/mL
//
molecule: CC(=O)c1ccc(NC(=O)C2C3CCC(C3)C2C(=O)O)cc1 (centres undefined)
solubility kinetic: > 45.2 µg/mL
//
molecule: COc1ccc(C(=O)NCCc2c[nH]c3ccccc23)cc1
solubility kinetic: 42.6 µg/mL
//
molecule: COc1ccc(C(=O)Nc2cccc(S(=O)(=O)NC3=NCCC3)c2)cc1OC
solubility kinetic: 40.4 µg/mL
//
molecule: C=CCn1c(Oc2ccccc2F)nc2c1c(=O)n(C)c(=O)n2C
solubility kinetic: > 49.5 µg/mL
//
molecule: O=C(CN1c2cccc3cccc(c23)S1(=O)=O)Nc1c(F)c(F)c(F)c(F)c1F
solubility kinetic: 1.3 µg/mL
//
molecule: Cc1ccc(C(=O)OCC(=O)NC2CCCC2)cc1
solubility kinetic: 22.5 µg/mL
//
molecule: O=C(Nc1ccc(Cl)cc1N1CCOCC1)C1CCCO1 (centres undefined)
solubility kinetic: 44.7 µg/mL
//
molecule: Cc1ccc(Nc2c([N+](=O)[O-])ccc3nonc23)cc1C
solubility kinetic: 0.4 µg/mL
//
molecule: O=C(NC1CCCC1)c1cc(-c2cccc(Cl)c2)on1
solubility kinetic: 1.5 µg/mL
//
molecule: CC(NC(=O)CCC(=O)NCc1ccc(F)cc1)c1ccccc1 (centres undefined)
solubility kinetic: > 49.3 µg/mL
//
molecule: O=C(Nc1ccccc1)C1CC(=O)N(Cc2ccccc2)C1 (centres undefined)
solubility kinetic: > 44.2 µg/mL
//
molecule: O=C(O)c1cc(S(=O)(=O)NCCCN2CCCC2=O)ccc1Cl
solubility kinetic: > 54.1 µg/mL
//
molecule: Cc1c(C(=O)OCC(=O)NC(C)c2ccccc2)oc2ccccc12 (centres undefined)
solubility kinetic: 4.4 µg/mL
//
molecule: CCOc1ccccc1C(=O)Nc1ccc(C(=O)c2ccccc2)cc1
solubility kinetic: < 0.7 µg/mL
//
molecule: C=COC(=O)c1sc2nc(C)cc(C)c2c1N
solubility kinetic: 0.5 µg/mL
//
molecule: Cc1csc(NC(=O)c2ccc(N3CCCC3=O)cc2)n1
solubility kinetic: 4.7 µg/mL
//
molecule: C[C@H](NC(=O)c1ccco1)C(=O)NC1CCCCCC1
solubility kinetic: > 41.8 µg/mL
